target: EGFR wildtype (WT) (Homo sapiens, UniProt P00533); assay: Biochemical EGFR kinase inhibition assay (Lance Ultra TR-FRET), wildtype; settings: IC50 WT (nM), 100 μM ATP
Sequence (P00533 25-1210): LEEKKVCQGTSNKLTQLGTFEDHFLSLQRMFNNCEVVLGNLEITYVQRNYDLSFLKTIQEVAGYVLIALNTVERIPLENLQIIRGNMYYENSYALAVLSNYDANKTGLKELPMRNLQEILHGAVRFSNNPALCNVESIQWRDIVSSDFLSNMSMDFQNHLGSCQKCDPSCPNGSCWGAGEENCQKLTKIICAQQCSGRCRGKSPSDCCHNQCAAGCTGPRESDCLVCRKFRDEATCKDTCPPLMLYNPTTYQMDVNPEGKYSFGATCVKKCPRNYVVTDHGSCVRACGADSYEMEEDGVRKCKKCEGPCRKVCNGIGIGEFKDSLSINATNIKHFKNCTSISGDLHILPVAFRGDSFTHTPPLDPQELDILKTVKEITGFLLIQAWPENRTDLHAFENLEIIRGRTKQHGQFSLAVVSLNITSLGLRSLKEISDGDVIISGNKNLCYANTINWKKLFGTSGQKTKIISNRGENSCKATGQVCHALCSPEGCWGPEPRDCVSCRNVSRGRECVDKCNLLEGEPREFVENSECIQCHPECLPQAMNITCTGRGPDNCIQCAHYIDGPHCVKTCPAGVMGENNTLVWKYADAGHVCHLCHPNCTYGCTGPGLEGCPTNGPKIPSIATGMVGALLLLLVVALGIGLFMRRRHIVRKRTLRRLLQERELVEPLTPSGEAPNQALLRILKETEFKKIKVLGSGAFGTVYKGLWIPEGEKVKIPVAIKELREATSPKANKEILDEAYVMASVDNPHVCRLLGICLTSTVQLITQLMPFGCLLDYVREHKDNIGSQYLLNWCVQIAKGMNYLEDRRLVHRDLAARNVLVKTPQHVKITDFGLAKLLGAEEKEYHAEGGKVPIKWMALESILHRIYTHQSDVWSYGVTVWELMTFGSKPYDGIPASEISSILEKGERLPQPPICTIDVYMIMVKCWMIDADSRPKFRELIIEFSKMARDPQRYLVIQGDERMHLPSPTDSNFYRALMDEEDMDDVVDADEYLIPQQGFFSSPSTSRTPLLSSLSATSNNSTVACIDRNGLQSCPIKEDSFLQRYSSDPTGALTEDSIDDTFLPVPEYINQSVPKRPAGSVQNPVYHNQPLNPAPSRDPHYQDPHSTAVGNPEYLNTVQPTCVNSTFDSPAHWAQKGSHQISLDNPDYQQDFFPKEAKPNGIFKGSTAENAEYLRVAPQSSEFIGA
For each of the compounds below, state its IC50.

Exercise: Which IC50 value is on record for `CC1(CO)CCN(c2cc(Nc3ccnc(-c4cnn(S(=O)(=O)C5CC5)c4)n3)ncc2C#Cc2ccccc2)CC1` ?
Key: > 10000 nM

Exercise: Return reported IC50; argument: CC(O)C1CCN(c2cc(Nc3ccnc(-c4cnn(S(=O)(=O)C5CC5)c4)n3)ncc2C#Cc2cnn(C(F)(F)F)c2)CC1 (centres unmarked)
Key: > 10000 nM

Exercise: I would be grateful if you could share the reported IC50 for `Cn1cc(C#Cc2cnc(Nc3ccnc(-c4cnn(S(=O)(=O)C5CC5)c4)n3)cc2NCC(C)(C)CO)cn1` .
Key: > 10000 nM

Exercise: Dear colleague, I am looking for the recorded IC50 of the following compound: `CN1CC(n2cc(C#Cc3cnc(Nc4ccnc(-c5cnn(S(=O)(=O)C6CC6)c5)n4)cc3N3CCC(C)(CO)CC3)cn2)C1`
Key: 47 nM

Exercise: # input compound: `CN1CCC(C#Cc2cnc(Nc3ccnc(-c4cnn(S(=O)(=O)C5CC5)c4)n3)cc2N2CCC(C)(CO)CC2)CC1` ; wanted: its IC50
Key: 648 nM

Exercise: Which measured IC50 value corresponds to `O=C1CCN(c2cc(Nc3ccnc(-c4cnn(S(=O)(=O)C5CC5)c4)n3)ncc2C#Cc2cnn(C3CCOCC3)c2)CC1` ?
Key: > 10000 nM

Exercise: GET /values?readout=IC50&item= `Cn1ncc(C#Cc2cnc(Nc3ccnc(-c4cnn(S(=O)(=O)C5CC5)c4)n3)cc2N2CCC(CCO)CC2)c1C1CC1`
Key: > 10000 nM

Exercise: Query: IC50; subject: `O=S(=O)(C1CC1)n1cc(-c2nccc(Nc3cc(NC[C@H]4CC[C@H](O)CC4)c(C#Cc4cnn(C(F)F)c4)cn3)n2)cn1`
Key: > 10000 nM

Exercise: What value of IC50 has been reported for the following compound? CC1(O)CCC(Nc2cc(Nc3ccnc(-c4cnn(S(=O)(=O)C5CC5)c4)n3)ncc2C#Cc2cnn(C3CC3(F)F)c2)CC1 (centres unmarked)
Key: > 10000 nM

Exercise: # input compound: `CC(C)(O)[C@H]1CC[C@@H](Nc2cc(Nc3ccnc(-c4cnn(S(=O)(=O)C5CC5)c4)n3)ncc2C#Cc2cnn(CC(F)F)c2)CC1` ; wanted: its IC50
Key: > 10000 nM

Exercise: Look up IC50: `Cn1cc(C#Cc2cnc(Nc3ccnc(-c4cnn(S(=O)(=O)C5CC5)c4)n3)cc2N2CCC(F)(CNCCF)CC2)cn1`
Key: > 10000 nM

Exercise: Fill blank: measured IC50 of the compound Cn1cc(C#Cc2cnc(Nc3ccnc(-c4cnn(S(=O)(=O)C5CC5)c4)n3)cc2N2CCCC(O)C2)cn1 (centres unmarked) is ____.
Key: 6020 nM

Exercise: Which IC50 reading was recorded for the compound `Cn1cc(C#Cc2cnc(Nc3ccnc(-c4cnn(S(=O)(=O)C5CC5)c4)n3)cc2N2CCC(F)(CO)CC2)cn1` ?
Key: 7550 nM

Exercise: What does the data say about its IC50? Entry: `CC1(C#Cc2cnc(Nc3ccnc(-c4cnn(S(=O)(=O)C5CC5)c4)n3)cc2N2CCC(C)(CO)CC2)CCOCC1`
Key: > 10000 nM

Exercise: // IC50 lookup, key: `CC(C)(O)[C@H]1CC[C@@H](Nc2cc(Nc3ccnc(-c4cnn(S(=O)(=O)C5CC5)c4)n3)ncc2C#Cc2cnn(CC(F)(F)F)c2)CC1`
Key: > 10000 nM

Exercise: Record request: IC50 value, item `O=S(=O)(C1CC1)n1cc(-c2nccc(Nc3cc(N4C[C@H]5C[C@@]5(CO)C4)c(C#Cc4cnn(C(F)(F)F)c4)cn3)n2)cn1`
Key: > 10000 nM

Exercise: I would be grateful if you could share the reported IC50 for CC1OCCC1C#Cc1cnc(Nc2ccnc(-c3cnn(S(=O)(=O)C4CC4)c3)n2)cc1N1CCC(C)(O)CC1 (centres unmarked) .
Key: > 10000 nM

Exercise: What does the data say about its IC50? Entry: `CC1(CO)CCN(c2cc(Nc3ccnc(-c4cnn(S(=O)(=O)C5CC5)c4)n3)ncc2C#CCN2CCS(=O)(=O)CC2)CC1`
Key: 8440 nM

Exercise: Record request: IC50 value, item `CC1(CO)CCN(c2cc(Nc3ccnc(-c4cnn(S(=O)(=O)C5CC5)c4)n3)ncc2C#CC2(O)CCCC2)CC1`
Key: 4870 nM

Exercise: Could you share which IC50 value was measured for O=C(N1CCC(C#Cc2cnc(Nc3ccnc(-c4cnn(S(=O)(=O)C5CC5)c4)n3)cc2NCC2CCC(CO)CC2)C1)C(F)(F)F (centres unmarked) ?
Key: > 10000 nM

Exercise: Recorded IC50 for `O=S(=O)(C1CC1)n1cc(-c2nccc(Nc3cc(N[C@H]4CCC[C@H](O)C4)c(C#Cc4cnn(C(F)(F)F)c4)cn3)n2)cn1` , please?
Key: > 10000 nM

Exercise: May I ask what IC50 has been recorded for `CC(C)Nc1cc(Nc2ccnc(-c3cnn(S(=O)(=O)C4CC4)c3)n2)ncc1C#CCCCCC(=O)N1CCOCC1` ?
Key: > 10000 nM

Exercise: For the compound shown here, `CC1(CO)CCN(c2cc(Nc3ccnc(-c4cnn(S(=O)(=O)C5CC5)c4)n3)ncc2C#Cc2cc(C(F)(F)F)n[nH]2)CC1` , give the reported IC50.
Key: > 10000 nM

Exercise: Entry `COC1(O)CCN(c2cc(Nc3ccnc(-c4cnn(S(=O)(=O)C5CC5)c4)n3)ncc2C#Cc2ccc(CN3CCN(C)CC3)cc2)CC1` has what IC50?
Key: 1200 nM

Exercise: Consider the compound O=S(=O)(C1CC1)n1cc(-c2nccc(Nc3cc(N4CCCC(O)C4)c(C#Cc4cnn(CC(F)(F)F)c4)cn3)n2)cn1 (centres unmarked) and give its measured IC50.
Key: > 10000 nM

Exercise: May I ask what IC50 has been recorded for `CN(C)CCn1cc(C#Cc2cnc(Nc3ccnc(-c4cnn(S(=O)(=O)C5CC5)c4)n3)cc2N2CCC(C)(CO)CC2)cn1` ?
Key: 143 nM
